# Tested on: ER-alpha MCF7
# PROTOCOL_TEXT: ER-alpha MCF7 HCS EC50; stated as measured by in vitro cell proliferation assays of Examples 902 and 903
# Type: cell-based
# APPLIED_CONDITIONS: Homo sapiens, MCF7, MCF7 cells; Table 2
pEC50: −log10 of the molar value.
OBSERVABLE: pEC50

[[record]]
compound = "C[C@@H]1Cc2c([nH]c3ccccc23)[C@@H](c2c(F)cc(OC3CN(CCCF)C3)cc2F)N1CC1(F)CCC1"
reading = 9.85


I. CCC(C)CN1CC(Oc2cc(F)c([C@@H]3c4[nH]c5ccccc5c4C[C@@H](C)N3CC(C)(C)F)c(F)c2)C1 (some centres unmarked)
II. C[C@@H]1Cc2c([nH]c3ccccc23)[C@@H](c2c(F)cc(OCCN3CC(CF)C3)cc2F)N1C(=O)C(C)(C)C
Prompt: Would you mind telling me which has the lower recorded pEC50 between I and II ? Respond using the label that marks the chosen record.
Completion: II
(II: 9.31, I: 9.57)

I. C[C@@H]1Cc2c([nH]c3ccccc23)[C@@H](c2ccc(NCCN3CC(CF)C3)cc2)N1CC(C)(C)F
II. C[C@@H]1Cc2c([nH]c3ccccc23)[C@@H](c2c(F)cc(OC3CN(CCC4CC4)C3)cc2F)N1CC(C)(C)F
Prompt: Field: entry with larger pEC50 (options I / II ). Lab log: write the label of the selected item as the result.
Completion: I
(I: 9.67, II: 9.00)

1. C[C@@H]1Cc2c([nH]c3ccccc23)[C@@H](c2ccc(OCCN3CC(CF)C3)cc2)N1CC(C)(C)F
2. C[C@@H]1Cc2c([nH]c3ccccc23)[C@@H](c2c(F)cc(OC3CN(C[C@@H]4C[C@H]4F)C3)cc2F)N1CC(C)(C)F
Prompt: Pick one: 1 or 2 . Which has the bigger pEC50 number? Selection: enter the item's label.
Completion: 1
(1: 9.47, 2: 9.00)

1. C[C@@H]1Cc2c([nH]c3ccc(F)cc23)[C@@H](c2c(F)cc(OC3CN(CCCF)C3)cc2F)N1CC(F)(F)CO
2. C[C@H]1Cc2c([nH]c3ccc(F)cc23)[C@H](c2c(F)cc(OC3CN(CCCF)C3)cc2F)N1CC(F)(F)CO
Prompt: // max by pEC50 over [ 1 , 2 ] Mark your answer with the label of the selected entry.
Completion: 1
(1: 9.78, 2: 8.05)

1. C[C@H]1Cc2c([nH]c3ccc(F)cc23)[C@H](c2c(F)cc(OC3CN(CCCF)C3)cc2F)N1C[C@@](C)(F)CO
2. C[C@H](CN1[C@H](c2c(F)cc(OCCN3CC(CF)C3)cc2F)c2[nH]c3ccccc3c2C[C@H]1C)C(N)=O
3. C[C@@H]1Cc2c([nH]c3c(F)cccc23)[C@@H](c2c(F)cc(NC3CN(CCCF)C3)cc2F)N1CC(F)(F)CO
4. C[C@@H]1Cc2c([nH]c3ccccc23)[C@@H](c2c(F)cc(OCCN3CC(CF)C3)cc2F)N1C[C@@](C)(O)CO
Prompt: Please produce an ascending ranking of these compounds based on pEC50. Would you mind listing the labels in the order asked for?
Completion: 1, 2, 4, 3
(1: 7.62, 2: 7.85, 4: 9.51, 3: 10.05)
